Assay: stimulators of nuclear beta-catenin in C2C12, primary screen, imaging, WNT3A-conditioned medium, mouse C2C12, NPC library (AID 1117326); also: reference of the scale not given here
Conditions: at 10 µM, stronger effect = higher value
The following compounds are listed with their measured nuclear beta-catenin stimulation values.
Provide only the numeric value, understood in %.

Dear colleague, I am looking for the recorded nuclear beta-catenin stimulation of the following compound: "Nc1ccc(S(=O)(=O)Nc2ccccc2)cc1" 1

---

inhibition of viability for assorted molecules
Assay: HCT116 colon cancer cell growth inhibition, primary screen, CellTiter-Glo luminescence, NPC library (AID 1117342)
Details: at 20 µM (top of the series)
Record the value in %, omitting the unit from your answer.

Some solved cases for reference:
| molecule | inhibition of viability (%) |
| --- | --- |
| CCCCC(CC)COC(=O)/C=C/c1ccc(OC)cc1 (stereo not drawn) | 15.9 |
| O=C(O)c1ccc(OCCCOc2ccc(C(=O)O)cc2)cc1 | -0.8 |
| C=C1C(=C/C=C2\CCC[C@]3(C)[C@@H]([C@H](C)/C=C/[C@@H](O)C4CC4)CC[C@@H]23)C[C@@H](O)C[C@@H]1O | 82 |
| CN(C)c1ccc(O)c2c1C[C@H]1C[C@H]3[C@H](N(C)C)C(=O)C(C(N)=O)=C(O)[C@@]3(O)C(=O)C1=C2O | 17.9 |
| O=C(CN1CCNCC1)NC1CCCCC1 | 7.2 |

Look up inhibition of viability: "Nc1ncnc(Nc2ccccc2)n1" 2.7

If you can, please state the reported inhibition of viability value of "C[C@@]12CCC[C@H]1[C@@H]1CC[C@H]3C[C@@H](O)CC[C@]3(C)[C@H]1CC2" . -11.6

Look up inhibition of viability for this molecule: NC(Cc1ccc([N+](=O)[O-])cc1)C(=O)O (stereo not drawn) -2.8
